This collection of values is drawn from ChEMBL document CHEMBL3124867.

experiment: Half life in CD rat at 1 mg/kg, iv by LC/MS/MS analysis; assay type: ADME, organism-based; parameters: dose 1 mg/kg, route intravenous; settings: in vivo
Reported Property: half-life (h)
Give bare numbers, in h.

// returns reported half-life for input `O=C(c1nn2c(C(F)(F)F)cc(C3CC3)cc2c1Cl)N1CCN([C@H]2C[C@@H]3C[C@@H]3[C@@H]2O)C(=O)C1` 2

---

target: Cytochrome P450 2D6 (Homo sapiens, UniProt P10635)
Sequence (P10635 whole entry): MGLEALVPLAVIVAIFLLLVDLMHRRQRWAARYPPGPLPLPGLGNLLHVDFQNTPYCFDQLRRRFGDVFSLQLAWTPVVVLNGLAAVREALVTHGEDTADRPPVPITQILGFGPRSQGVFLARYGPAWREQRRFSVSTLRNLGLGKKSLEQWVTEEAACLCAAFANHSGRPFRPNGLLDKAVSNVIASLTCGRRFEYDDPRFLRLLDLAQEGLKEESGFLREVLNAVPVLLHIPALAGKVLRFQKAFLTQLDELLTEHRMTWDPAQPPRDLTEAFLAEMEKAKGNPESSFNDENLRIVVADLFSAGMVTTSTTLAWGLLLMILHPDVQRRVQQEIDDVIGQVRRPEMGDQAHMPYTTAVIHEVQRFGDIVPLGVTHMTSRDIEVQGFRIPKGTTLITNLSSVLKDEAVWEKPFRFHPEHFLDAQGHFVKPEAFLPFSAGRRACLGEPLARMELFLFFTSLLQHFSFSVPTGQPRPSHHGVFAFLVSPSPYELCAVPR
Reported Property: IC50

Returns the measured IC50 for the input molecule. Input: `O=C(c1nn2c(C(F)(F)F)cc(C3CC3)cc2c1Cl)N1CCN([C@H]2C[C@@H]3C[C@@H]3[C@@H]2O)C(=O)C1` > 20 µM
